biological target: UniProt:Q9Y5N5; test: KMT9 thermal shift assay (SyproOrange); type: binding; conditions: 500 µM compound, 2 μM KMT9; read-out: Thermal shift (ΔTm)
Sequence (Q9Y5N5 whole entry): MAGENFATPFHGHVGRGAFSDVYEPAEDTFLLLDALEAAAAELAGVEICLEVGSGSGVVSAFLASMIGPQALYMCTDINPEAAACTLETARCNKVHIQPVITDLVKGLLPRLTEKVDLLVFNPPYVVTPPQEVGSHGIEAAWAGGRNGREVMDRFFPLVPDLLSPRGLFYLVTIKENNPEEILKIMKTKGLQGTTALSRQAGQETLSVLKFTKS
Sequence (Q9UI30 1-120 isoform Q9UI30-2 partner): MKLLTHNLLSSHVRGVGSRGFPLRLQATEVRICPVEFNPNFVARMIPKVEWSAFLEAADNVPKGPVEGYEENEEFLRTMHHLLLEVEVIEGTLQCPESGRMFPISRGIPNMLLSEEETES
Please go through the items and note down their ΔTm at 500 µM.

IN: Entry under review: CNc1nc(Cl)nc2c1ccn2[C@@H]1C[C@H](c2ccccc2)[C@@H](O)[C@H]1O . Reported ΔTm at 500 µM?
OUT: ≤ 10 °C

IN: Request: Cn1cc(Cl)c(-c2cn([C@@H]3C[C@H](c4cccc(CN5CCC5)c4)[C@@H](O)[C@H]3O)c3nc(Cl)nc(N)c23)n1
OUT: 15 to 20 °C

IN: Again, but for COc1cccc([C@H]2C[C@@H](n3cc(Br)c4c(N)nc(Cl)nc43)[C@H](O)[C@@H]2O)c1
OUT: 10 to 15 °C

IN: Can you check CN(CCCNCCc1ccc(F)cc1)C[C@H]1C[C@@H](n2cc(-c3ccccc3)c3c(N)nc(Cl)nc32)[C@H](O)[C@@H]1O next?
OUT: 15 to 20 °C

IN: Same for COc1cccc([C@H]2C[C@@H](n3ccc4c(N)nc(Cl)nc43)[C@H](O)[C@@H]2O)c1
OUT: 10 to 15 °C

IN: Would you mind doing COc1cccc([C@H]2C[C@@H](n3cc(-c4ccn(C)n4)c4c(N)nc(Cl)nc43)[C@H](O)[C@@H]2O)c1 as well?
OUT: 10 to 15 °C

IN: Now consider COc1cc(OC)cc([C@H]2C[C@@H](n3cc(Br)c4c(N)nc(Cl)nc43)[C@H](O)[C@@H]2O)c1 .
OUT: 10 to 15 °C
